We begin with a simple list: items and their reported IC50.
# SYSTEM: recombinant human NaV1.8 stably transfected HEK cells (Homo sapiens)
# Construct: expressed in transfected cells; host or cells: HEK cells, stably transfected
# TEST DETAILS: Compound profiling on NaV1.8, human NaV1.8 cell line, SyncroPatch384PE automated patch clamp assay (Example 115, third set of compounds, Table 27)
# Type: cell-based
# TEST PARAMETERS: resting state block (P1 measurement), human NaV1.8 HEK cells, Table 27 (third set of compounds), read-out: P1 IC50

* Cc1cc(F)ccc1Oc1nnc(C(F)(F)F)cc1C(=O)Nc1cccc(-c2cc[nH]n2)c1 [Compound 85] | > 5000 nM

Find the recorded IC50 belonging to COc1cc(F)ccc1Oc1nnc(C(F)(F)F)cc1C(=O)Nc1ccc(C(N)=O)nc1 [Compound 125] and report it.
≤ 200 nM

Find the recorded IC50 belonging to COc1ccc(F)cc1Oc1nnc(C(F)(F)F)cc1C(=O)Nc1cccc(S(C)(=N)=O)c1 (centres unmarked) [Compound 116] and report it.
201 to 500 nM

* * *

We begin with a simple list: items and their reported pIC50.
# SYSTEM: recombinant human NaV1.8 stably transfected HEK cells (Homo sapiens, UniProt Q9Y5Y9)
# Construct: expressed in transfected cells; host or cells: HEK cells, stably transfected
# Sequence (Q9Y5Y9 whole entry): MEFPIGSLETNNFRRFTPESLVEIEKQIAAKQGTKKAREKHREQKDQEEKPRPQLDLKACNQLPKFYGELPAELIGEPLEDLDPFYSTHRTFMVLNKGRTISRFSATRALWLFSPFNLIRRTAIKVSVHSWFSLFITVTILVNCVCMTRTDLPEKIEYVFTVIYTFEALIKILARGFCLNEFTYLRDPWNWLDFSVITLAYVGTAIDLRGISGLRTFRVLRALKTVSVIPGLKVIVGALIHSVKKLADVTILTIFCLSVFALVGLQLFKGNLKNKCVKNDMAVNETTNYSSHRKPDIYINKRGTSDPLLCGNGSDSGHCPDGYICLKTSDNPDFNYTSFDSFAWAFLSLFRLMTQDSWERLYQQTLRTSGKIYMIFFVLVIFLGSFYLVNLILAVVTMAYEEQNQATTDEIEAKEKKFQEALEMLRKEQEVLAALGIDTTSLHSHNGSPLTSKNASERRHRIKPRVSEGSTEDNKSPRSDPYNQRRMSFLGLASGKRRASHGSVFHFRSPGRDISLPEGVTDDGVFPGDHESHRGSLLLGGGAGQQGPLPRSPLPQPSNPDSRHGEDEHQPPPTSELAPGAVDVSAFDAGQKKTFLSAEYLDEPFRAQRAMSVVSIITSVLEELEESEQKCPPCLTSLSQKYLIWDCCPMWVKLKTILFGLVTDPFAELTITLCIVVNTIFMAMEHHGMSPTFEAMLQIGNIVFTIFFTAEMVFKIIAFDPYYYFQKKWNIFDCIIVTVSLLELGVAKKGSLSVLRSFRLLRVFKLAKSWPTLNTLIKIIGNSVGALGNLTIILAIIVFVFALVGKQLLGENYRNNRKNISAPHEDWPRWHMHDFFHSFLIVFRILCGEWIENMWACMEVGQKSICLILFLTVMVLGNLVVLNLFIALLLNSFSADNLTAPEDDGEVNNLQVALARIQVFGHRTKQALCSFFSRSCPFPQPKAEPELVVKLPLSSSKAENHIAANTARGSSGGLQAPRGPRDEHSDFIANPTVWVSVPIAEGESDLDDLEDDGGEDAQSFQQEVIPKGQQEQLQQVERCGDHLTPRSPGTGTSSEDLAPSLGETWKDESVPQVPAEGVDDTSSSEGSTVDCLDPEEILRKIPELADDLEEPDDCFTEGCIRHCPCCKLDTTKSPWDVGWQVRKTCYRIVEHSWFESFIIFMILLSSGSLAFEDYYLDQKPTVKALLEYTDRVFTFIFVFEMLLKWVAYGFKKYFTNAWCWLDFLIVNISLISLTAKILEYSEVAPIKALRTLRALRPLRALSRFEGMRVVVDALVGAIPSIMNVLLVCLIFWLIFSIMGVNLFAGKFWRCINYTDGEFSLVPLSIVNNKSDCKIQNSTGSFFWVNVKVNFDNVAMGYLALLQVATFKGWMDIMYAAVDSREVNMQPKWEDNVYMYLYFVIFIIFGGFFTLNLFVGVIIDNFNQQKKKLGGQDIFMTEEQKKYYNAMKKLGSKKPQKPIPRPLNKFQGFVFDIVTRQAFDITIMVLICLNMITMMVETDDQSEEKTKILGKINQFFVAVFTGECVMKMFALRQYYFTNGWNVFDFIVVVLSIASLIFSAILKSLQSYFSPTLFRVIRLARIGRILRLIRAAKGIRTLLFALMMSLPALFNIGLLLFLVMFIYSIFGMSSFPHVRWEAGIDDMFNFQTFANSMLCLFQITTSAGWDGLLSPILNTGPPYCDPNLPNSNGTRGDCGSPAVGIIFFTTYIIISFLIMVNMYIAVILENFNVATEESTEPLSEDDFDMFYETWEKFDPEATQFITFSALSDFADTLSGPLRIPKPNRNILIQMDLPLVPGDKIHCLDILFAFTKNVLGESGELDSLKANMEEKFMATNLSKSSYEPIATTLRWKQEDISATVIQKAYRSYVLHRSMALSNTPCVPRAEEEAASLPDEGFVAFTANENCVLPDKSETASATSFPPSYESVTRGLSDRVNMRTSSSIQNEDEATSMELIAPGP
# TEST DETAILS: Compound profiling on NaV1.8, human NaV1.8 cell line, SyncroPatch384PE automated patch clamp assay (Example 102, first set of compounds, Table 16)
# Assay type: cell-based
# TEST PARAMETERS: resting state block (P1 measurement), human NaV1.8 HEK cells, Table 16 (first set of compounds), read-out: P1IC50
pIC50: −log10 of the molar value.

Below, each entry is followed by its recorded pIC50 result.
- COc1cc(C#N)ccc1Oc1nnc(-c2ccc(C(F)F)cc2)c(C)c1C(=O)Nc1cccc(S(C)(=N)=O)c1 (stereo not shown): ≥ 7.70
- Cc1nc(C#N)ccc1Oc1ncc(C(F)(F)F)cc1C(=O)Nc1cccc(S(C)(=N)=O)c1 (stereo not shown): 7.40 to 7.70
- Cc1nc(OC2CCC2)ccc1Oc1ncc(C(F)(F)F)cc1C(=O)Nc1ccc(C(N)=O)cc1: 6.30 to 6.70
- Cc1c(C(F)(F)F)nnc(Oc2ccc(OC(C)C)c(F)c2F)c1C(=O)Nc1cccc(S(C)(=O)=O)c1: ≥ 7.70
- COc1cc(C#N)ccc1Oc1nc(C(F)(F)F)nc(C)c1C(=O)Nc1ccc(C(N)=O)cc1: 6.70 to 7.40

Find the recorded pIC50 belonging to `NC(=O)c1cccc(NC(=O)c2cc(C(F)(F)F)cnc2Oc2ccc(C(F)F)nc2)c1` and report it.
6.30 to 6.70

Find the recorded pIC50 belonging to `COc1cc(F)ccc1Oc1ncc(C(F)(F)F)cc1C(=O)Nc1cc(S(C)(=O)=O)ccc1F` and report it.
6.70 to 7.40

* * *

# SYSTEM: recombinant human NaV1.8 stably transfected HEK cells (Homo sapiens)
# Construct: expressed in transfected cells; host or cells: HEK cells, stably transfected
# TEST DETAILS: Compound profiling on NaV1.8, human NaV1.8 cell line, SyncroPatch384PE automated patch clamp assay (Example 115, third set of compounds, Table 27)
# Type: cell-based
# TEST PARAMETERS: inactivated state block (P2 measurement), human NaV1.8 HEK cells, Table 27 (third set of compounds), read-out: P2 IC50
PROPERTY NAME: IC50

Find the recorded IC50 belonging to `Cc1cc(Br)ccc1Oc1nnc(C(F)(F)F)cc1C(=O)Nc1cccc(S(C)(=O)=O)c1` and report it.
≤ 200 nM

* * *

We begin with a simple list: items and their reported pIC50.
# SYSTEM: recombinant human NaV1.8 stably transfected HEK cells (Homo sapiens, UniProt Q9Y5Y9)
# Construct: expressed in transfected cells; host or cells: HEK cells, stably transfected
# TEST DETAILS: Compound profiling on NaV1.8, human NaV1.8 cell line, SyncroPatch384PE automated patch clamp assay (Example 102, first set of compounds, Table 16)
# Type: cell-based
# TEST PARAMETERS: resting state block (P1 measurement), human NaV1.8 HEK cells, Table 16 (first set of compounds), read-out: P1IC50
pIC50: −log10 of the molar value.

- Cc1ccc(Oc2nnc(C(F)(F)F)c(C)c2C(=O)Nc2cccc(S(C)(=N)=O)c2)c(C)n1 (single isomer, unassigned) [Compound 1485]: 6.30 to 6.70
- COCCNC(=O)c1cccc(NC(=O)c2c(Oc3ccc(C#N)cc3OC)nnc(C(F)(F)F)c2C)c1: 6.30 to 6.70

Kindly review the next compound as well.
Find the recorded pIC50 belonging to `CS(=O)(=O)c1cccc(NC(=O)c2cc(C(F)(F)F)cnc2OCC23CC(F)(C2)C3)c1` and report it.
6.70 to 7.40

* * *

# SYSTEM: recombinant human NaV1.8 stably transfected HEK cells (Homo sapiens)
# Construct: expressed in transfected cells; host or cells: HEK cells, stably transfected
# TEST DETAILS: Compound profiling on NaV1.8, human NaV1.8 cell line, SyncroPatch384PE automated patch clamp assay (Example 115, third set of compounds, Table 27)
# Format: cell-based
# TEST PARAMETERS: inactivated state block (P2 measurement), human NaV1.8 HEK cells, Table 27 (third set of compounds), read-out: P2 IC50
pIC50: −log10 of the molar value.
We begin with a simple list: items and their reported pIC50.

- Cc1cc(F)ccc1Oc1nnc(C(F)(F)F)cc1C(=O)Nc1cccc2nncn12: < 5.30
- Cc1cc(-c2cnoc2)ccc1Oc1nnc(C(F)(F)F)cc1C(=O)Nc1cccc(S(C)(=O)=O)c1: ≥ 6.70
- Cc1cc(C(=O)Nc2cccc(S(C)(=N)=O)c2)c(Oc2ccc(F)cc2C)nn1 (centres unmarked): < 5.30
- COc1cc(NC(=O)c2cc(C(F)(F)F)nnc2Oc2ccc(F)cc2C)ccn1: 6.00 to 6.30

Find the recorded pIC50 belonging to `Cc1cc(OC(F)(F)F)ccc1Oc1nnc(C(F)(F)F)cc1C(=O)Nc1cccc(S(C)(=O)=O)c1` and report it.
≥ 6.70

Find the recorded pIC50 belonging to `COc1cc(F)ccc1Oc1nnc(C(F)(F)F)cc1C(=O)Nc1cncc(C(N)=O)n1` and report it.
< 5.30

Find the recorded pIC50 belonging to `CS(=O)(=O)c1cccc(NC(=O)c2cc(C(F)(F)F)nnc2Oc2ccc(F)cc2O)c1` and report it.
5.30 to 6.00

Find the recorded pIC50 belonging to `Cc1ccc(F)cc1Oc1nnc(C(F)(F)F)cc1C(=O)Nc1cccc(S(N)(=O)=O)c1` and report it.
6.00 to 6.30

* * *

We begin with a simple list: items and their reported IC50.
# SYSTEM: recombinant human NaV1.8 stably transfected HEK cells (Homo sapiens)
# Construct: expressed in transfected cells; host or cells: HEK cells, stably transfected
# TEST DETAILS: Compound profiling on NaV1.8, human NaV1.8 cell line, SyncroPatch384PE automated patch clamp assay (Example 102, first set of compounds, Table 16)
# Assay type: cell-based
# TEST PARAMETERS: resting state block (P1 measurement), human NaV1.8 HEK cells, Table 16 (first set of compounds), read-out: P1IC50

Below, each entry is followed by its recorded IC50 result.
* Cc1c(Oc2nnc(C(F)(F)F)c(C)c2C(=O)Nc2cccc(S(C)(=N)=O)c2)ccc(Cl)c1F (stereo not shown) [Compound 1486] | ≤ 20 nM
* Cc1cc(C#N)ccc1Oc1nnc(C(F)(F)F)c(C)c1C(=O)Nc1cccc([S@](C)(=N)=O)c1 | ≤ 20 nM
* Cc1nc(OC2CCC2)ccc1Oc1nnc(C(F)(F)F)c(C)c1C(=O)Nc1cccc(S(C)(=N)=O)c1 (stereo not shown) [Compound 1498] | 40 to 200 nM
* COc1cc(C#N)ccc1Oc1ncc(C(F)(F)F)cc1C(=O)Nc1ccc[n+]([O-])c1 | 40 to 200 nM
* CS(=N)(=O)c1cccc(NC(=O)c2cc(C(F)(F)F)cnc2Oc2ccc(C(F)F)nc2)c1 (stereo not shown) | 200 to 500 nM
* COc1ccc(-c2nnc(Oc3ccc(C#N)cc3OC)c(C(=O)Nc3cccc([S@@](C)(=N)=O)c3)c2C)cc1 | 40 to 200 nM

Kindly review the next compound as well.
Find the recorded IC50 belonging to `Cc1cc(F)ccc1Oc1ncc(C(F)(F)F)cc1C(=O)Nc1cccc(S(C)(=O)=O)c1` and report it.
≤ 20 nM

* * *

# SYSTEM: recombinant human NaV1.8 stably transfected HEK cells (Homo sapiens, UniProt Q9Y5Y9)
# Construct: expressed in transfected cells; host or cells: HEK cells, stably transfected
# TEST DETAILS: Compound profiling on NaV1.8, human NaV1.8 cell line, SyncroPatch384PE automated patch clamp assay (Example 102, first set of compounds, Table 16)
# Assay type: cell-based
# TEST PARAMETERS: resting state block (P1 measurement), human NaV1.8 HEK cells, Table 16 (first set of compounds), read-out: P1IC50
PROPERTY NAME: IC50

Below, each entry is followed by its recorded IC50 result.
- Cc1cc(F)ccc1Oc1nnc(C2CC2)c(C)c1C(=O)Nc1cccc(S(C)(=N)=O)c1 (stereo not shown) [Compound 1433]: 40 to 200 nM
- Cc1c(C(F)(F)F)nnc(Oc2ccc(C#N)cc2)c1C(=O)Nc1cccc(S(C)(=N)=O)c1 (stereo not shown) [Compound 21]: 20 to 40 nM
- COc1cc(C#N)ccc1Oc1nnc(-c2ccc(C(F)F)cc2)c(C)c1C(=O)Nc1cccc([S@@](C)(=N)=O)c1 [Compound 1533]: 20 to 40 nM
- COc1c(Oc2ncc(C#N)cc2C(=O)Nc2cccc(C(N)=O)c2)ccc(F)c1F [Compound 1724]: 40 to 200 nM
- Cc1c(Oc2nnc(C(F)(F)F)c(C)c2C(=O)Nc2cccc(S(C)(=O)=O)c2)ccc(Cl)c1F [Compound 1421]: ≤ 20 nM

Find the recorded IC50 belonging to COc1cc(C#N)ccc1Oc1nnc(-c2nccs2)c(C)c1C(=O)Nc1cccc(S(C)(=N)=O)c1 (stereo not shown) [Compound 1463] and report it.
≤ 20 nM

Find the recorded IC50 belonging to CS(=N)(=O)c1cccc(NC(=O)c2cc(C(F)(F)F)cnc2Oc2ccc(-c3ccccc3)cc2)c1 (stereo not shown) [Compound 1585] and report it.
200 to 500 nM
